ASSAY_NOTES: in vitro
CONDITION_INFO: human

| COMPOUND | CC50 (µg/mL) |
| --- | --- |
| CC(C)=CCC[C@@]1(C)C=Cc2c(O)c3c(c(CC4OC4(C)C)c2O1)O[C@]12C(=C[C@@H]4CC1C(C)(C)OC2(C/C=C(/C)C(=O)O)C4=O)C3=O (some centres unmarked) [Gh-3351, epiformoxanthone E] | 3.3 |
| CC(C)=CCc1c2c(c(O)c3c1O[C@]14C(=C[C@@H]5CC1C(C)(C)OC4(C/C=C(/C)C(=O)O)C5=O)C3=O)C=C[C@@](C)(C/C=C/C(C)(C)O)O2 | 2.5 |
| CC(C)=CCc1c2c(c(O)c3c1O[C@]14C(=C[C@@H]5CC1C(C)(C)OC4(C/C=C(/C)C(=O)O)C5=O)C3=O)C=C[C@](C)(CCC(O)C(C)(C)O)O2 (some centres unmarked) [Gh-3271, epiformoxanthone J] | 1.5 |
| CC(C)=CCc1c2c(c(O)c3c1O[C@]14C(=C[C@@H]5CC1C(C)(C)OC4(C/C=C(\C)C(=O)O)C5=O)C3=O)C=CC(C)(C/C=C\C(C)(C)O)O2 (some centres unmarked) | 3.3 |
| CC(C)=CCc1c2c(c(O)c3c1O[C@]14C(=C[C@@H]5CC1C(C)(C)OC4(C/C=C(/C)C(=O)O)C5=O)C3=O)C=C[C@@](C)(CCC(O)C(C)(C)O)O2 (some centres unmarked) | 1.4 |

====

System: Human breast adenocarcinoma cell MCF7
ASSAY_NOTES: cells
CONDITION_INFO: MCF7, read-out: LC50 (50% lethal concentration)

| MOLECULE | TESTED_TARGET | UNIT | CC50 |
| --- | --- | --- | --- |
| CC(C)=CCc1c2c(c(O)c3c1O[C@]14C(=C[C@@H]5CC1C(C)(C)OC4(C/C=C(/C)C(=O)O)C5=O)C3=O)C=C[C@@](C)(C/C=C/C(C)(C)O)O2 [Gh-3272, formoxanthone H] | Human breast adenocarcinoma cell MCF7 | µg/mL | 2.8 |
| CC(C)=CCC[C@@]1(C)C=Cc2c(O)c3c(c(CC4OC4(C)C)c2O1)O[C@]12C(=C[C@@H]4CC1C(C)(C)OC2(C/C=C(/C)C(=O)O)C4=O)C3=O (stereo partly drawn) [Gh-3351, epiformoxanthone E] | Human breast adenocarcinoma cell MCF7 | µg/mL | 3.8 |
| C=C(C)C1CC[C@@]2(C)Oc3c(CC=C(C)C)c4c(c(O)c3[C@@H]1C2O)C(=O)C1=C[C@@H]2CC3C(C)(C)OC(C/C=C(/C)C(=O)O)(C2=O)[C@@]13O4 (stereo partly drawn) [Gh-1050, 3α-hydroxygambogellic acid] | Human breast adenocarcinoma cell MCF7 | µg/mL | 1 |

====

Tested on: Human histocytic lymphoma cell U937
ASSAY_NOTES: cells
CONDITION_INFO: U-937, read-out: LC50 (50% lethal concentration)
Measured CC50, listed per entry.

| MOLECULE | CC50 [µg/mL] |
| --- | --- |
| CC(C)=CCc1c2c(c(O)c3c1O[C@]14C(=C[C@@H]5CC1C(C)(C)OC4(C/C=C(/C)C(=O)O)C5=O)C3=O)C=C[C@@](C)(C/C=C/C(C)(C)O)O2 | 0.43 |
| C=C(C)[C@@H]1CC[C@@]2(C)CC1c1c(O)c3c(c(CC=C(C)C)c1O2)O[C@]12C(=C[C@@H]4CC1C(C)(C)O[C@]2(C/C=C(/C)C(=O)O)C4=O)C3=O [Gh-2603-1, epigambogellic acid] | 3.1 |
| CC(C)=CCC[C@@]1(C)C=Cc2c(O)c3c(c(CC(O)C(C)(C)O)c2O1)O[C@]12C(=C[C@@H]4CC1C(C)(C)OC2(C/C=C(/C)C(=O)O)C4=O)C3=O (stereo partly shown) [Gh-1036, epiformoxanthone F] | 0.81 |
| C=C(C)C(O)CC[C@]1(C)C=Cc2c(O)c3c(c(CC=C(C)C)c2O1)O[C@]12C(=C[C@@H]4CC1C(C)(C)OC2(C/C=C(/C)C(=O)O)C4=O)C3=O (stereo partly shown) | 0.61 |
| CC(C)=CCC[C@]1(C)C=Cc2c(O)c3c(c(CC(O)C(C)(C)O)c2O1)O[C@]12C(=C[C@@H]4CC1C(C)(C)OC2(C/C=C(/C)C(=O)O)C4=O)C3=O (stereo partly shown) | 0.69 |
| CC(C)=CCc1c2c(c(O)c3c1O[C@]14C(=C[C@@H]5CC1C(C)(C)OC4(C/C=C(/C)C(=O)O)C5=O)C3=O)C=C[C@@](C)(CCC(O)C(C)(C)O)O2 (stereo partly shown) | 0.31 |
| C=C(C)C1CC[C@@]2(C)Oc3c(CC=C(C)C)c4c(c(O)c3[C@@H]1C2O)C(=O)C1=C[C@@H]2CC3C(C)(C)OC(C/C=C(/C)C(=O)O)(C2=O)[C@@]13O4 (stereo partly drawn) [Gh-1050, 3α-hydroxygambogellic acid] | 2.3 |
| CC(C)=CCC[C@]1(C)C[C@H](O)c2c(O)c3c(c(CC=C(C)C)c2O1)O[C@]12C(=C[C@@H]4CC1C(C)(C)O[C@]2(C/C=C(/C)C(=O)O)C4=O)C3=O (stereo in doubt) | 1 |
| CC(C)=CCC[C@]1(C)C=Cc2c(O)c3c(c(CC=C(C)C)c2O1)O[C@]12C(=C[C@@H]4CC1C(C)(C)O[C@]2(C/C=C(/CO)C(=O)O)C4=O)C3=O [Gh-1601-A, 30-hydroxygambogic acid] | 0.28 |
| CC(C)=CCC[C@]1(C)C=Cc2c(O)c3c(c(CC4OC4(C)C)c2O1)O[C@]12C(=C[C@@H]4CC1C(C)(C)OC2(C/C=C(/C)C(=O)O)C4=O)C3=O (stereo partly shown) | 0.26 |

====

Tested on: Human promyelocytic leukemia cell HL-60
ASSAY_NOTES: cells
CONDITION_INFO: HL-60, read-out: IC50 (50% inhibition concentration)
IC50 under 1 µg/mL gets Condition met, anything at or over 1 µg/mL gets Condition not met.

| COMPOUND | CLASS_LABEL |
| --- | --- |
| CC(C)=CCC[C@]1(C)C=Cc2c(O)c3c(c(CC=C(C)C)c2O1)O[C@]12C(=C[C@@H]4CC1C(C)(C)O[C@]2(C/C=C(\C)C(=O)O)C4=O)C3=O [Gh-1641, isogambogic acid] | Condition not met |
| C=C(C)C1CC[C@]2(C)C[C@H]1c1c(O)c3c(c(CC=C(C)C)c1O2)O[C@]12C(=CC4CC1C(C)(C)O[C@]2(C/C=C(/C)C(=O)O)C4=O)C3=O (stereo partly drawn) [Gh-2603-2, gambogellic acid] | Condition met |
| CC(C)=CCC[C@@]1(C)C=Cc2c(O)c3c(c(CC=C(C)C)c2O1)O[C@]12C(=C[C@@H]4CC1C(C)(C)O[C@]2(C/C=C(\C)C(=O)O)C4=O)C3=O [Gh-1642, epiisogambogic acid] | Condition not met |
| CC(C)=CCC/C(C)=C/Cc1c(O)c(CC=C(C)C)c2c(c1O)C(=O)C1=C[C@@H]3CC4C(C)(C)O[C@](C/C=C(\C)C(=O)O)(C3=O)[C@@]14O2 [Gh-2642, isogambogenic acid] | Condition not met |
| CC(C)=CCC[C@]1(C)C=Cc2c(O)c3c(c(CC4OC4(C)C)c2O1)O[C@]12C(=C[C@@H]4CC1C(C)(C)OC2(C/C=C(/C)C(=O)O)C4=O)C3=O (stereo partly drawn) [Gh-3352, formoxanthone E] | Condition met |
| CC(C)=CCc1c2c(c(O)c3c1O[C@]14C(=C[C@@H]5CC1C(C)(C)OC4(C/C=C(\C)C(=O)O)C5=O)C3=O)C=CC(C)(C/C=C\C(C)(C)O)O2 (stereo partly drawn) [Gh-3332, isoformoxanthone I] | Condition not met |
| C=C(C)C1CC[C@@]2(C)Oc3c(CC=C(C)C)c4c(c(O)c3[C@@H]1C2O)C(=O)C1=C[C@@H]2CC3C(C)(C)OC(C/C=C(/C)C(=O)O)(C2=O)[C@@]13O4 (stereo partly drawn) [Gh-1050, 3α-hydroxygambogellic acid] | Condition met |
